IC50 reference
# Assayed System: Disintegrin and metalloproteinase domain-containing protein 17 (Homo sapiens)
# Sequence (P78536 whole entry, the tested form may be a part): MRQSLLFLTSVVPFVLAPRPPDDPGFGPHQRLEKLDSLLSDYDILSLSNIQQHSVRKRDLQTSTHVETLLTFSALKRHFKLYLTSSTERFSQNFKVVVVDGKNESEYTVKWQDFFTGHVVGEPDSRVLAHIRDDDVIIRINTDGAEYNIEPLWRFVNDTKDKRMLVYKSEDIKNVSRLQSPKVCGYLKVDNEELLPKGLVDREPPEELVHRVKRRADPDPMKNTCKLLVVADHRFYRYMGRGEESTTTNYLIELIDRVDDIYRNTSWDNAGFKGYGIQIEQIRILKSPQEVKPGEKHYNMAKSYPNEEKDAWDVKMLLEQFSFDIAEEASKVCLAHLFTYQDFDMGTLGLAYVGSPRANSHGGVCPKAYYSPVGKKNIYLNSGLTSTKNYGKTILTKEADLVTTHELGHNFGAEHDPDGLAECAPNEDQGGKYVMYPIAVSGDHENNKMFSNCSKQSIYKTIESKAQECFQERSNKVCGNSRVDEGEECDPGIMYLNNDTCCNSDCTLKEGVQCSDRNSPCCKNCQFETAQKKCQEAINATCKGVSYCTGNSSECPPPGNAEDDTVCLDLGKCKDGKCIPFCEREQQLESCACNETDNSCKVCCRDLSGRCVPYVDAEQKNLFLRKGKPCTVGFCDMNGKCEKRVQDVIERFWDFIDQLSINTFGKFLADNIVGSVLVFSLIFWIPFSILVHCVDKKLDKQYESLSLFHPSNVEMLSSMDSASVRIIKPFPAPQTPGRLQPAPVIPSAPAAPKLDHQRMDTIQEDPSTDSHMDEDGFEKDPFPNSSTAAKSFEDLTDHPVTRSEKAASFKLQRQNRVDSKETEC
# Test Method Notes: inhibition of ADAM17 substrate cleavage – biochemical, quenched FRET substrate, counter-screen for ADAM10 exosite inhibitor project, dose response (AID 743253)
The source made the active and inactive calls. No rule for the calls is given here.

INSERT INTO results (molecule, reported_measurement) VALUES
  ('C=C(C)COc1ccc(-c2n[nH]c(C)c2Oc2ccccc2OC)c(O)c1', '> 69.5 µM (inactive)'),
  ('CC(C)(C)c1ccc(-c2cc(-c3ccccc3O)n[nH]2)cc1', '> 69.6 µM (inactive)'),
  ('O=C(NC(NC(=S)Nc1cccc(Cl)c1)C(Cl)(Cl)Cl)OCc1ccccc1 (centres undefined)', '> 69.5 µM (inactive)');

Turning to the following molecule.
// returns reported IC50 for input O=C(N/N=C/c1cn(-c2cccs2)nc1-c1ccccc1)c1ccccc1Cl
> 69.5 µM (inactive)
